# ASSAYED_SYSTEM: hM3 (human Muscarinic receptor subtype 3) (Homo sapiens, UniProt P20309)
# Sequence (P20309 whole entry): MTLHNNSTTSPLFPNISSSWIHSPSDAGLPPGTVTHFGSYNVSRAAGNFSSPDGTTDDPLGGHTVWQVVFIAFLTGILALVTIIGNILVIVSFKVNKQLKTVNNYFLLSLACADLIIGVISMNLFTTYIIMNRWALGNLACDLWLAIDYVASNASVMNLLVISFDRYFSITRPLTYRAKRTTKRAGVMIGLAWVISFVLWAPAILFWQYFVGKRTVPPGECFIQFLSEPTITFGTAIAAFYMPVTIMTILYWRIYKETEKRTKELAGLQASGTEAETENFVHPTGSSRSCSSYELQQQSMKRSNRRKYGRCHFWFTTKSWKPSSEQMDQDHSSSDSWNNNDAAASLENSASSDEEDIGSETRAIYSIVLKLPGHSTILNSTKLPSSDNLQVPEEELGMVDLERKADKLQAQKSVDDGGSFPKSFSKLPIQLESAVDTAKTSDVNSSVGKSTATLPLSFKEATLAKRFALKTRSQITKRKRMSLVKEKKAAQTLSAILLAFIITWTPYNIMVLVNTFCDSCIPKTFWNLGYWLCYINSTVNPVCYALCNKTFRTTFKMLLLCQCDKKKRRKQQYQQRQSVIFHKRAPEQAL
# ASSAY_INFO: Human M3 calcium mobilization FLIPR assay
# CONDITION_PARAMETERS: CHO cells expressing hM3, Ca2+ release
pEC50: −log10 of the molar value.
Measured pEC50 accompanies every entry in the list below.

Req: Quick check: pEC50 of `CC(C)OC(=O)N1CCC(N2CCC(N3C(=O)N[C@@H]4CCCC[C@@H]43)CC2)CC1` ?
Resp: < 4.40

More entries:
Req: What does the record list as pEC50 for `CCOC(=O)N1CCC(N2CCC(N3C(=O)N(C(C)C)[C@H]4CCCC[C@@H]43)CC2)CC1` ?
Resp: < 4.40

Req: Recorded pEC50 of `CCOC(=O)N1CC[C@H](N2CCC(N3C(=O)N[C@H]4CCCC[C@@H]43)CC2)C1` , please.
Resp: < 4.40

Req: If you can, please state the reported pEC50 value of `O=C1CCCN1CCC(=O)N1CCC(N2CCC(N3C(=O)N[C@@H]4CCCC[C@H]43)CC2)CC1` .
Resp: 5.27

Req: Dear colleague, I am looking for the recorded pEC50 of the following compound: `COc1ccccc1C(=O)N1CCC(N2CCC(N3C(=O)N[C@@H]4CCCC[C@H]43)CC2)CC1`
Resp: < 4.40

Req: Entry `CN1C(=O)N(C2CCN(C3CCN(C(=O)C4CC4)CC3)CC2)[C@H]2CCCC[C@@H]21` has what pEC50?
Resp: < 4.40

Req: Find the recorded pEC50 belonging to `Cc1ccccc1C(=O)N1CCC(N2CCC(N3C(=O)C[C@H]4CCCC[C@@H]43)CC2)CC1` and report it.
Resp: < 4.40
